Recorded IC50 for the following molecules
Target: ASK1 (Homo sapiens, UniProt Q99683)
Sequence (Q99683 649-946 limits assumed): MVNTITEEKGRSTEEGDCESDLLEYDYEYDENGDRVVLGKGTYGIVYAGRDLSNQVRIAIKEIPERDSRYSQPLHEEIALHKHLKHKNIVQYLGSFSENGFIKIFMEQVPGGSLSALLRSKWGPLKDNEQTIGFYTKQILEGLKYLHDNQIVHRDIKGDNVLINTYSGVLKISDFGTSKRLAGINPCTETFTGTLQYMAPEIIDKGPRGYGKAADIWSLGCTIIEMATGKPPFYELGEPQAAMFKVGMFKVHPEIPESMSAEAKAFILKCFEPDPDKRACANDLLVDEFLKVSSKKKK

// worked examples, IC50 included
>>> value_reported("O=C1c2scc(C3CCOCC3)c2CN1c1cccc(-c2nncn2C2CC2)n1 [Compound 98]")
"1000 to 10000 nM"
>>> value_reported("O=C1c2sccc2CN1c1cccc(-c2nncn2C2CC2)n1 [Compound 90]")
"< 200 nM"
>>> value_reported("O=C1c2scc(Br)c2CN1c1cccc(-c2nncn2C2CC2)n1 [Compound 100]")
"200 to 1000 nM"
>>> value_reported("CN(C)c1cc2c(s1)C(=O)N(c1cccc(-c3nncn3C3CC3)n1)C2 [Compound 104]")
"200 to 1000 nM"
>>> value_reported("CCc1cc2c(s1)C(=O)N(c1cccc(-c3nncn3C3CC3)n1)C2 [Compound 97]")
"200 to 1000 nM"
>>> value_reported("COc1cc2c(s1)C(=O)N(c1cccc(-c3nncn3C3CC3)n1)C2 [Compound 102]")
"< 200 nM"
>>> value_reported("CC(C)n1cnnc1-c1cccc(N2Cc3ccsc3C2=O)n1 [Compound 103]")
"< 200 nM"
>>> value_reported("Cc1csc2c1CN(c1cccc(-c3nncn3C3CC3)n1)C2=O [Compound 99]")
"200 to 1000 nM"

We now examine a further molecule.
Prompt: Let me know recorded IC50 for Cc1cc2c(s1)C(=O)N(c1cccc(-c3nncn3C3CC3)n1)C2 [Compound 96] , thanks.
Completion: < 200 nM

Hello, the source for this data is patent US20210213006A1, in case you need it.
